Where do these numbers come from? They come from ChEMBL document CHEMBL5131564.

- assay.comment: Clearance in Balb/C mouse plasma at 10 mg/kg, iv measured upto 48 hrs by LC-MS/MS analysis
- Format: ADME, organism-based
quantity.name: clearance (mL/min/kg)

• Cc1ccc(-c2cn([C@H]3CC[C@@H](N)CC3)c3ncnc(N)c23)c(F)c1 = 166

---

- assay.comment: Volume of distribution in Balb/C mouse at 10 mg/kg, iv measured upto 48 hrs by LC-MS/MS analysis
- Format: ADME, organism-based
- condition.label: in vivo
quantity.name: Vd

- Cc1ccc(-c2cn([C@H]3CC[C@@H](N)CC3)c3ncnc(N)c23)c(F)c1: 43.9 L/kg

---

- assay.comment: Drug uptake in DSS-induced acute ulcerative colitis C57BL/6 mouse model assessed as drug concentration in colon at 20 mg/kg, po after 0.5 hrs
- Type: ADME, organism-based
- condition.label: read-out: Drug uptake
quantity.name: concentration at 0.5 h (ng/g)

* Cc1ccc(-c2cn([C@H]3CC[C@@H](N)CC3)c3ncnc(N)c23)c(F)c1 | 3620

---

- assay.comment: AUC (0 to t) in Balb/C mouse at 10 mg/kg, iv measured upto 48 hrs by LC-MS/MS analysis
- Format: ADME, organism-based
- Design: time < 48 hrs, dose 10 mg/kg, route iv
- condition.label: in vivo
quantity.name: AUC(0-t) at 48 h (µg·h/mL)

* Cc1ccc(-c2cn([C@H]3CC[C@@H](N)CC3)c3ncnc(N)c23)c(F)c1 | 1

---

Activity values by entry
- assayed.system: Receptor-interacting serine/threonine-protein kinase 1 (Homo sapiens)
- Sequence (whole entry): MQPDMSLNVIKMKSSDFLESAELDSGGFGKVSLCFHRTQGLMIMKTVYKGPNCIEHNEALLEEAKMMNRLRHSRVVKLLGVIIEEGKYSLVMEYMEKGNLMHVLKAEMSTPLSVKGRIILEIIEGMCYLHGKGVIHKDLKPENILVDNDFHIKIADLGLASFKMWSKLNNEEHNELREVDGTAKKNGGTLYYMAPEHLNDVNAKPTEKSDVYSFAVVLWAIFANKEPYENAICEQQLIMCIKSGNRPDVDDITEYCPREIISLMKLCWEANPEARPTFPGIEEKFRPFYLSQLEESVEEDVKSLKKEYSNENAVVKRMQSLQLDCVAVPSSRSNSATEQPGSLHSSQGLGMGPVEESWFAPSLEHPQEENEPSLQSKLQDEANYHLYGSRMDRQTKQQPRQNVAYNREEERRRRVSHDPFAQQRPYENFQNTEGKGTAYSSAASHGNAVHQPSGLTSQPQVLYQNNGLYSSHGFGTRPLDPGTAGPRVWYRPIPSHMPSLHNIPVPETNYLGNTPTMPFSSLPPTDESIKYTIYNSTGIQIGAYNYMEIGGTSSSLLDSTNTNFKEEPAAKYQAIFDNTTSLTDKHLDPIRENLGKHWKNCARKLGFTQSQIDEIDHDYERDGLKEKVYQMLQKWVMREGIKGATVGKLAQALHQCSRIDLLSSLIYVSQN
- assay.comment: Inhibition of human RIPK1 assessed as active kinase incubated for 120 mins in presence of [gamma33P]ATP at 1000 nM by scintillation counting based radiometry assay relative to control
- Set-up: scale not given: the % may be the effect or the level left
quantity.name: Activity (%)

- COc1ccc(-c2cn([C@H]3CC[C@@H](NCc4ccccc4)CC3)c3ncnc(N)c23)cc1: 94
- CCCC(=O)N[C@H]1CC[C@@H](n2cc(-c3ccc(OC)cc3)c3c(N)ncnc32)CC1: 72
- Nc1ncnc2c1c(-c1ccc(O)cc1)cn2[C@H]1CC[C@@H](N)CC1: 96
- Nc1ccc(-c2cn([C@H]3CC[C@@H](N)CC3)c3ncnc(N)c23)cc1F: 112
- Nc1ccccc1-c1cn([C@H]2CC[C@@H](N)CC2)c2ncnc(N)c12: 112
- COc1ccc(-c2cn([C@H]3CC[C@@H](NS(=O)(=O)C(F)(F)F)CC3)c3ncnc(N)c23)cc1: 73
- Nc1ncnc2c1c(-c1ccc3c(c1)OCO3)cn2[C@H]1CC[C@@H](N)CC1: 119
- Nc1ncnc2c1c(-c1ccc(F)cc1)cn2[C@H]1CC[C@@H](N)CC1: 125
- Nc1ncnc2c1c(-c1ccoc1)cn2[C@H]1CC[C@@H](N)CC1: 101

---

- assayed.system: Receptor-interacting serine/threonine-protein kinase 2 (Homo sapiens, UniProt O43353)
- Sequence (O43353 whole entry): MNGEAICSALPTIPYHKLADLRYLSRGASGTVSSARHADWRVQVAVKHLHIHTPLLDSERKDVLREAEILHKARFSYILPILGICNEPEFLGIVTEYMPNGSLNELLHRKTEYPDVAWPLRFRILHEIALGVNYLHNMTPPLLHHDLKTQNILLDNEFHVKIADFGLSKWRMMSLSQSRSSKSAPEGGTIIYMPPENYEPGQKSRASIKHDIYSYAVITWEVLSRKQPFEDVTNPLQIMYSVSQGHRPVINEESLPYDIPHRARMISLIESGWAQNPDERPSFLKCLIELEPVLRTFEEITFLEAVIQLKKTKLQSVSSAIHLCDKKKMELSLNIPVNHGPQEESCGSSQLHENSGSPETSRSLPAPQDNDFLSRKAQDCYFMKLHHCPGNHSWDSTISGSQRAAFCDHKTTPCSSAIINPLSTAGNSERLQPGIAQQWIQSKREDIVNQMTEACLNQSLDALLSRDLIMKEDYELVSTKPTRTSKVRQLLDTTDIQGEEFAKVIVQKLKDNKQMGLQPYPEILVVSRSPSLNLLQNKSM
- assay.comment: Binding affinity to human RIPK2 in HEK293 cells
quantity.name: Kd (nM)

• Cc1ccc(-c2cn([C@H]3CC[C@@H](N)CC3)c3ncnc(N)c23)c(F)c1 = 0.28

---

- assay.comment: Toxicity in rat H9c2 cells assessed as inhibitory rate at 10 uM relative to control
- Type: cell-based
Where inhibition at 10 µM equals or exceeds 60%, the correct label is y; where it does not, the label is n.

• Cc1ccc(-c2cn([C@H]3CC[C@@H](N)CC3)c3ncnc(N)c23)cc1 = n
• Nc1ncnc2c1c(-c1cccc(F)c1)cn2[C@H]1CC[C@@H](N)CC1 = n
• Cc1ccc(-c2nn(C(C)(C)CNC(=O)c3ccncc3)c3ncnc(N)c23)cc1 = n
• Nc1ncnc2c1c(-c1cccc(Cl)c1)cn2[C@H]1CC[C@@H](N)CC1 = y
• Nc1ncnc2c1c(-c1ccc3c(c1)OCO3)cn2[C@H]1CC[C@@H](N)CC1 = y
• Cc1cccc(-c2cn([C@H]3CC[C@@H](N)CC3)c3ncnc(N)c23)c1 = n
• Cc1ccccc1-c1cn([C@H]2CC[C@@H](N)CC2)c2ncnc(N)c12 = n
• Nc1ncnc2c1c(-c1ccc(F)cc1)cn2[C@H]1CC[C@@H](N)CC1 = n
• Nc1ccc(-c2cn([C@H]3CC[C@@H](N)CC3)c3ncnc(N)c23)cc1F = y
• Nc1ncnc2c1c(-c1ccccc1)cn2[C@H]1CC[C@@H](N)CC1 = n

---

- assay.comment: Cmax in Balb/C mouse at 10 mg/kg, iv measured upto 48 hrs by LC-MS/MS analysis
- Assay type: ADME, organism-based
- Design: dose 10 mg/kg, time < 48 hrs, route iv
- condition.label: in vivo
quantity.name: Cmax (ng/mL)

* Cc1ccc(-c2cn([C@H]3CC[C@@H](N)CC3)c3ncnc(N)c23)c(F)c1 | 959

---

- assay.comment: Toxicity in rat H9c2 cells assessed as inhibitory rate
- Assay type: cell-based
pIC50: −log10 of the molar value.
Catalogue of pIC50 values
quantity.name: pIC50

* Cc1ccc(-c2nn(C(C)(C)CNC(=O)c3ccncc3)c3ncnc(N)c23)cc1 | 4.88
* Cc1ccc(-c2cn([C@H]3CC[C@@H](N)CC3)c3ncnc(N)c23)c(Cl)c1 | 4.94
* Cc1ccc(-c2cn([C@H]3CC[C@@H](N)CC3)c3ncnc(N)c23)c(F)c1 | 4.91

---

- assayed.system: Receptor-interacting serine/threonine-protein kinase 3 (Homo sapiens, UniProt Q9Y572)
- Sequence (Q9Y572 whole entry): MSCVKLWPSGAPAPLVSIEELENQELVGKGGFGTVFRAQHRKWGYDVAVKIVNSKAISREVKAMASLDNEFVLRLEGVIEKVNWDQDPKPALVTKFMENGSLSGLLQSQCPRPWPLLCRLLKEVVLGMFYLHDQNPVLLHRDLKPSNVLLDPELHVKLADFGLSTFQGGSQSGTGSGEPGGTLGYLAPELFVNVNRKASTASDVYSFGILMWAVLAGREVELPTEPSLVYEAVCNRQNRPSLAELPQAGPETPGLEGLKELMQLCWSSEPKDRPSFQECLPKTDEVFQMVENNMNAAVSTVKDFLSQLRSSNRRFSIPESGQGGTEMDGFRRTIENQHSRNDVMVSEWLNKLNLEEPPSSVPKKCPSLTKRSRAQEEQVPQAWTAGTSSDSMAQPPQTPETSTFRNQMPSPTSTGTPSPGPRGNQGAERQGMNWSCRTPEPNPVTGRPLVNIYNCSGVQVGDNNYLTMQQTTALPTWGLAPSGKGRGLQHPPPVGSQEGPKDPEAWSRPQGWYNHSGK
- assay.comment: Binding affinity to human RIPK3 in human Jurkat cells
pKd: −log10 of the molar value.
quantity.name: pKd

- Cc1ccc(-c2cn([C@H]3CC[C@@H](N)CC3)c3ncnc(N)c23)c(F)c1: 7.13

---

- assay.comment: Metabolic stability in human liver microsomes assessed as half life at 1 uM by LC/MS/MS analysis
- Assay type: ADME, Microsome
quantity.name: log10 half-life at 1 µM (log10 of the value in h)

• Nc1ncnc2c1c(-c1cccc(F)c1)cn2[C@H]1CC[C@@H](N)CC1 = 0.25
• Cc1ccc(-c2cn([C@H]3CC[C@@H](N)CC3)c3ncnc(N)c23)cc1F = -0.35
• Cc1ccc(-c2cn([C@H]3CC[C@@H](N)CC3)c3ncnc(N)c23)cc1Cl = -0.33
• COc1ccc(-c2cn([C@H]3CC[C@@H](NCC#N)CC3)c3ncnc(N)c23)cc1 = -1.35
• Nc1ncnc2c1c(-c1ccc(O)cc1)cn2[C@H]1CC[C@@H](N)CC1 = 0.35
• Nc1ncnc2c1c(-c1ccccc1)cn2[C@H]1CC[C@@H](N)CC1 = 0.39
• COc1ccc(-c2cn([C@H]3CC[C@@H](NCc4ccccc4)CC3)c3ncnc(N)c23)cc1 = -1.57
